// provenance: patent US11001590B2

Field: chromatographic logP. Provide a value for each of the compounds that follow.
# experiment: log P by HPLC on reversed phase columns (Method L0; [a] acidic, [b] neutral range)
Just the number, please.

Returns the measured chromatographic logP for the input compound. Input: Cc1nn2c(C(C)C)c(C(=O)N[C@H]3CCCc4ccccc43)cnc2c1-c1cncc(Cl)c1
4.52

Returns the measured chromatographic logP for the input compound. Input: COc1c(F)ccc(-c2c(C)nn3c(C(C)C)c(C(=O)N[C@H]4CCOc5ccccc54)cnc23)c1F
4.32

Returns the measured chromatographic logP for the input compound. Input: Cc1nn2c(C(C)C)c(C(=O)N[C@H]3CCOc4ccccc43)cnc2c1-c1c(Cl)cccc1Cl
4.56

Returns the measured chromatographic logP for the input compound. Input: Cc1nn2c(C(C)C)c(C(=O)N[C@H]3CCc4ccccc43)cnc2c1-c1cccc(C(F)(F)F)n1
5.39

Returns the measured chromatographic logP for the input compound. Input: Cc1nn2c(C(C)C)c(C(=O)N[C@H]3CCOc4ccccc43)cnc2c1-c1cccc(F)c1Cl
4.46

Returns the measured chromatographic logP for the input compound. Input: Cc1nn2c(C(C)C)c(C(=O)N[C@H]3CCOc4ccccc43)cnc2c1-c1cccc2c1CCN2C
4.11

Returns the measured chromatographic logP for the input compound. Input: COc1cc(-c2c(C)nn3c(C(C)C)c(C(=O)N[C@H]4CCOc5ccccc54)cnc23)cc(F)c1F
4.6

Returns the measured chromatographic logP for the input compound. Input: Cc1nn2c(C(C)C)c(C(=O)N[C@H]3CCc4ccccc43)cnc2c1-c1ccc(C(F)F)cc1
4.63

Returns the measured chromatographic logP for the input compound. Input: Cc1nn2c(C)c(C(=O)N[C@H]3CCCc4ccccc43)cnc2c1-c1cc(Cl)cc(Cl)c1
5.29

Returns the measured chromatographic logP for the input compound. Input: Cc1nn2c(C3CC3)c(C(=O)N[C@H]3CCOc4ccccc43)cnc2c1-c1c(F)cccc1Cl
3.65

Returns the measured chromatographic logP for the input compound. Input: Cc1nn2c(C(C)C)c(C(=O)N[C@H]3CCCc4ccccc43)cnc2c1-c1cccc(F)c1F
4.9

Returns the measured chromatographic logP for the input compound. Input: COCc1cccc(-c2c(C)nn3c(C(C)C)c(C(=O)N[C@H]4CCCc5ccccc54)cnc23)c1
4.74

Returns the measured chromatographic logP for the input compound. Input: CC(C)c1c(C(=O)N[C@H]2CCOc3ccccc32)cnc2c(-c3cccc(OC(F)(F)F)c3)c(C(F)(F)F)nn12
5.31

Returns the measured chromatographic logP for the input compound. Input: Cc1nn2c(C(C)C)c(C(=O)N[C@H]3CCCc4ccccc43)cnc2c1-c1cccc(F)c1
5.04

Returns the measured chromatographic logP for the input compound. Input: Cc1nn2c(N3CCOCC3)c(C(=O)N[C@H]3CCOc4ccccc43)cnc2c1-c1c(F)ccc(F)c1F
3.29

====

# experiment: log P by HPLC on reversed phase columns (Method L0; [a] acidic, [b] neutral range)
# applied_conditions: HPLC on reversed phase columns, Method L0, [a] acidic range
metric: logP (Method L0) [a]
Just the number, please.

Returns the measured logP (Method L0) [a] for the input compound. Input: CC(C)c1c(C(=O)N[C@H]2CCc3ccccc32)cnc2c(-c3ccc(F)nc3)c(C(F)(F)F)nn12
4.35

Returns the measured logP (Method L0) [a] for the input compound. Input: Cc1c(C(=O)N[C@H]2CCc3ccccc32)cnc2c(-c3cc(Cl)cc(Cl)c3)c(Cl)nn12
5.47

Returns the measured logP (Method L0) [a] for the input compound. Input: O=C(N[C@H]1CCc2ccccc21)c1cnc2c(-c3ccccc3Cl)c(C(F)(F)F)nn2c1
4.15

Returns the measured logP (Method L0) [a] for the input compound. Input: Cc1nn2c(C(C)C)c(C(=O)N[C@H]3CCOc4ccc(Cl)cc43)cnc2c1-c1ccc(Cl)cc1
5.36

Returns the measured logP (Method L0) [a] for the input compound. Input: Cc1nn2c(C(C)C)c(C(=O)N[C@H]3CCc4ccccc43)cnc2c1-c1ccc(Cl)c(C(=O)NC2CC2)c1
3.78

Returns the measured logP (Method L0) [a] for the input compound. Input: Cc1ccc2c(c1)[C@@H](NC(=O)c1cnc3c(-c4cccc(Cl)c4)c(C)nn3c1C(C)C)CCC2
5.9

Returns the measured logP (Method L0) [a] for the input compound. Input: CC(C)c1c(C(=O)N[C@H]2CCc3ccccc32)cnc2c(-c3ccc(Cl)cc3)c(C(F)(F)F)nn12
5.48

Returns the measured logP (Method L0) [a] for the input compound. Input: Cc1c(C(=O)N[C@H]2CCCc3ccccc32)cnc2c(-c3cccc(C(F)(F)F)c3)c(C(F)(F)F)nn12
5.03

Returns the measured logP (Method L0) [a] for the input compound. Input: CC(C)c1c(C(=O)N[C@H]2CCOc3ccccc32)cnc2c(-c3cnn(CC(F)(F)F)c3)c(C(F)(F)F)nn12
4.21

Returns the measured logP (Method L0) [a] for the input compound. Input: Cc1c(C(=O)N[C@H]2CCc3ccccc32)cnc2c(-c3ccc(Cl)cc3)c(C(F)(F)F)nn12
4.7

Returns the measured logP (Method L0) [a] for the input compound. Input: Cc1c(C(=O)N[C@H]2CCCc3ccccc32)cnc2c(-c3cccc(C(F)(F)F)c3)c(Cl)nn12
5.03

Returns the measured logP (Method L0) [a] for the input compound. Input: Cc1nn2c(C(C)C)c(C(=O)N[C@H]3CCOc4ccc(Cl)cc43)cnc2c1-c1cccc(Cl)c1
5.36

Returns the measured logP (Method L0) [a] for the input compound. Input: Cc1c(C(=O)N[C@H]2CCCc3ccccc32)cnc2c(-c3ccc(Cl)cc3)c(C(F)(F)F)nn12
4.97

Returns the measured logP (Method L0) [a] for the input compound. Input: O=C(N[C@H]1CCc2ccccc21)c1cnc2c(-c3cc(Cl)cc(Cl)c3)c(Cl)nn2c1
5.39

Returns the measured logP (Method L0) [a] for the input compound. Input: O=C(N[C@H]1CCc2ccccc21)c1cnc2c(-c3cccc(C(F)(F)F)c3)c(C(F)(F)F)nn2c1
4.66

Returns the measured logP (Method L0) [a] for the input compound. Input: Cc1nn2c(C(C)C)c(C(=O)N[C@H]3CCOc4ccc(Cl)cc43)cnc2c1-c1cc(F)ccc1F
4.82
